tgt: full-length SARM1 (FL-SARM1) (Homo sapiens, UniProt Q6SZW1)
Sequence (Q6SZW1 28-724): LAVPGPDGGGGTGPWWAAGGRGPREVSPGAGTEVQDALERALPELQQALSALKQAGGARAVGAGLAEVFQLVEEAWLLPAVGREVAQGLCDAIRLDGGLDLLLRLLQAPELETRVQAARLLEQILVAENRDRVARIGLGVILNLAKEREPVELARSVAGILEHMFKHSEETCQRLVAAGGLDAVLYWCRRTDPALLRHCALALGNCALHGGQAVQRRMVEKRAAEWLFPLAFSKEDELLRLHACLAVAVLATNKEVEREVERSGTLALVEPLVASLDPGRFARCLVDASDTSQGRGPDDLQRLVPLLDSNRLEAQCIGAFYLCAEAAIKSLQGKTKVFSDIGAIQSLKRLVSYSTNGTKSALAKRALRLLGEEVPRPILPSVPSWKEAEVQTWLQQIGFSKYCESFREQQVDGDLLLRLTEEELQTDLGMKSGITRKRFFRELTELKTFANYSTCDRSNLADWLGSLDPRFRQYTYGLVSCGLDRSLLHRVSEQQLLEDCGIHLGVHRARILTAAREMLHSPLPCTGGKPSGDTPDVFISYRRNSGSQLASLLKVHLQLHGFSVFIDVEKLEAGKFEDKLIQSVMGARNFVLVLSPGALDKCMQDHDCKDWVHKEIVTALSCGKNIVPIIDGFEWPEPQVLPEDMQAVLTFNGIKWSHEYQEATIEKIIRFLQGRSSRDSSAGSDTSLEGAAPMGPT
test.summary: FL-SARM1 cellular lysate assay (NAD/NADH-Glo detection of remaining NAD+, NMN-activated)
protocol.conditions: Activity (IC50 class), 11 point curve
IC50: recorded values

Query string: // fetch IC50 for Cc1ccc(NC(=O)N2C[C@@H]3CCC[C@@H]32)cc1-c1ncc(F)cn1 (racemic) ; system: full-length SARM1 (FL-SARM1) (Homo sapiens, UniProt Q6SZW1)
Result string: 1 to 10 µM

====

tgt: full-length SARM1 (FL-SARM1) (Homo sapiens, UniProt Q6SZW1)
test.summary: FL-SARM1 cellular lysate assay (NAD/NADH-Glo detection of remaining NAD+, NMN-activated)
protocol.conditions: Activity (IC50 class), 11 point curve
reported.property: IC50

The following compounds have reported results that may help.
compound: Cc1ccc(NC(=O)N2C3CCCC2C3)cc1-c1nccc(C(F)(F)F)n1
tgt: full-length SARM1 (FL-SARM1) (Homo sapiens, UniProt Q6SZW1)
IC50: 1 to 10 µM
--
compound: Cc1ccc(NC(=O)N2CCC[C@@H]2c2ccccc2)cc1-c1ccccn1
tgt: full-length SARM1 (FL-SARM1) (Homo sapiens, UniProt Q6SZW1)
IC50: 1 to 10 µM
--
compound: Cc1ccc(NC(=O)C2C3CC(C3)N2c2ccccn2)cc1-c1ncc(F)cn1 (stereo not shown)
tgt: full-length SARM1 (FL-SARM1) (Homo sapiens, UniProt Q6SZW1)
IC50: > 10 µM
--
compound: Cc1ccc(NC(=O)N2C3CCCC2C3)cc1-c1ncc(F)c(C#N)n1
tgt: full-length SARM1 (FL-SARM1) (Homo sapiens, UniProt Q6SZW1)
IC50: 1 to 10 µM
--
compound: Cc1ccc(NC(=O)C2CN(CC(F)(F)F)C2)cc1-c1ccccn1
tgt: full-length SARM1 (FL-SARM1) (Homo sapiens, UniProt Q6SZW1)
IC50: > 10 µM
--
compound: Cc1ccc(NC(=O)[C@@H]2C[C@@H]3C[C@@H]3N2c2ncccn2)cc1-c1ncc(F)cn1
tgt: full-length SARM1 (FL-SARM1) (Homo sapiens, UniProt Q6SZW1)
IC50: > 10 µM
--
compound: C[C@H]1CC1c1ccc(NC(=O)[C@@H]2CC2(F)F)cc1-c1ccccn1 (stereo partly shown)
tgt: full-length SARM1 (FL-SARM1) (Homo sapiens, UniProt Q6SZW1)
IC50: 1 to 10 µM
--
compound: COC(C)[C@@]12CC(C[C@@H](C)C1)N2C(=O)Nc1ccc(C(F)(F)F)c(-c2nccnn2)c1 (single isomer, unassigned) [Example 210]
tgt: full-length SARM1 (FL-SARM1) (Homo sapiens, UniProt Q6SZW1)
IC50: > 10 µM

Query string: Read the entry "Cc1ccc(NC(=O)[C@H]2C[C@@H](OC(F)(F)F)C2)cc1-c1ccccn1" and write its reported IC50.
Result string: 1 to 10 µM

Query string: Read the entry "COc1cccnc1-c1cc(NC(=O)N2C3CCCC2C3)ccc1C" and write its reported IC50.
Result string: > 10 µM

====

tgt: full-length SARM1 (FL-SARM1) (Homo sapiens, UniProt Q6SZW1)
test.summary: FL-SARM1 cellular lysate assay (NAD/NADH-Glo detection of remaining NAD+, NMN-activated)
protocol.conditions: Activity (μM) (IC50), 11 point curve
reported.property: IC50 (µM)
Your answer should be a plain number; it is taken to be in µM.

The following compounds have reported results that may help.
compound: Cc1ccc(NC(=O)N2C3CCCC2C3)cc1-c1ncc(F)c(C#N)n1
units.symbol: µM
measured.result: 1
//
compound: CNC(=O)CC12CC(C)CC(C1)N2C(=O)Nc1ccc(C)c(-c2ncc(F)cn2)c1 (centres unmarked)
units.symbol: µM
measured.result: 0.01
//
compound: CSc1ncc(N2[C@@H](C(=O)Nc3ccc(C)c(-c4ncc(F)cn4)c3)C[C@H]3C[C@H]32)nn1
units.symbol: µM
measured.result: 6.2

Query string: Read the entry "Cc1cc(F)c(NC(=O)N2[C@@H]3C[C@@H](C)C[C@H]2C3)cc1-c1ncccn1" and write its reported IC50.
Result string: 0.08

Query string: Read the entry "C[C@@H]1C[C@@H]2C[C@H](C1)N2C(=O)Nc1cc(-c2nccnn2)c(Cl)cc1F" and write its reported IC50.
Result string: 0.2

Query string: Read the entry Cc1ccc(NC(=O)N(C)C(c2ncccn2)C2CCC2)cc1-c1ncc(F)cn1 (racemic) and write its reported IC50.
Result string: 3.9

Query string: Read the entry Cc1ccc(NC(=O)[C@H]2C[C@@H]2C2CC2)cc1-c1cccnn1 (racemic) and write its reported IC50.
Result string: 11

Query string: Read the entry "Cc1ccc(NC(=O)[C@H]2CC[C@@H](C)N2c2ncccn2)cc1-c1ncc(F)cn1" and write its reported IC50.
Result string: 2.1

====

tgt: full-length SARM1 (FL-SARM1) (Homo sapiens)
test.summary: FL-SARM1 cellular lysate assay (NAD/NADH-Glo detection of remaining NAD+, NMN-activated)
protocol.conditions: Activity (μM) (IC50), 11 point curve
reported.property: IC50 (µM)
Your answer should be a plain number; it is taken to be in µM.

Query string: // fetch IC50 for Cc1ccc(NC(=O)[C@@H]2CO[C@H](C(F)(F)F)CN2c2ccccn2)cc1-c1ncc(F)cn1 (racemic) [Example 272] ; system: full-length SARM1 (FL-SARM1) (Homo sapiens)
Result string: 1.1

Query string: // fetch IC50 for Cc1ccc(NC(=O)N2[C@@H]3C[C@@H](F)C[C@H]2C3)cc1-c1ccccn1 [Example 27] ; system: full-length SARM1 (FL-SARM1) (Homo sapiens)
Result string: 0.1

Query string: // fetch IC50 for Cc1ccc(NC(=O)N2C3CC2CN(CC(F)(F)F)C3)cc1-c1ccccn1 [Example 4] ; system: full-length SARM1 (FL-SARM1) (Homo sapiens)
Result string: 0.4

====

tgt: full-length SARM1 (FL-SARM1) (Homo sapiens, UniProt Q6SZW1)
test.summary: FL-SARM1 cellular lysate assay (NAD/NADH-Glo detection of remaining NAD+, NMN-activated)
protocol.conditions: Activity (μM) (IC50), 11 point curve
reported.property: IC50

compound: Cc1ccc(NC(=O)[C@H]2C[C@@H]3C[C@@H]3N2c2ncccn2)cc1-c1ncc(F)cn1
IC50: 47 µM

Query string: Read the entry COC(C)[C@@]12CC(C[C@@H](C)C1)N2C(=O)Nc1ccc(C(F)(F)F)c(-c2nccnn2)c1 (single isomer, unassigned) [Example 210] and write its reported IC50.
Result string: > 50 µM

====

tgt: full-length SARM1 (FL-SARM1) (Homo sapiens)
test.summary: FL-SARM1 cellular lysate assay (NAD/NADH-Glo detection of remaining NAD+, NMN-activated)
protocol.conditions: Activity (IC50 class), 11 point curve
IC50: recorded values

compound: Cc1ccc(NC(=O)N2CC(C)C2)cc1-c1ncc(F)cn1
tgt: full-length SARM1 (FL-SARM1) (Homo sapiens)
IC50: > 10 µM
--
compound: O=C(Nc1ccc(C(F)(F)F)c(-c2ccc(F)cn2)c1)[C@@H]1CC1(F)F
tgt: full-length SARM1 (FL-SARM1) (Homo sapiens)
IC50: 1 to 10 µM
--
compound: Cc1ccc(NC(=O)[C@@H]2C[C@@H]2c2ccccn2)cc1-c1cccnn1
tgt: full-length SARM1 (FL-SARM1) (Homo sapiens)
IC50: > 10 µM

Query string: Read the entry Cc1ccc(NC(=O)[C@H]2C[C@@H]2c2ccccc2)cc1-c1ncc(F)cn1 (racemic) and write its reported IC50.
Result string: > 10 µM

====

tgt: full-length SARM1 (FL-SARM1) (Homo sapiens)
test.summary: FL-SARM1 cellular lysate assay (NAD/NADH-Glo detection of remaining NAD+, NMN-activated)
protocol.conditions: Activity (μM) (IC50), 11 point curve
# strict inequality: IC50 < 1 µM yields met, everything else yields not met

Example entries begin here.
molecule: Cc1ccc(NC(=O)N2[C@@H]3C[C@H](C)C[C@H]2C3)cc1-c1ccccn1
tgt: full-length SARM1 (FL-SARM1) (Homo sapiens)
assigned.category: met
--
molecule: COC(C)[C@@]12CC(C[C@@H](C)C1)N2C(=O)Nc1ccc(C(F)(F)F)c(-c2nccnn2)c1 (single isomer, unassigned) [Example 209]
tgt: full-length SARM1 (FL-SARM1) (Homo sapiens)
assigned.category: met
--
molecule: Cc1ccc(NC(=O)[C@H]2CC[C@@H](C)CN2c2ncccn2)cc1-c1ncccn1 (single isomer, unassigned) [Example 205]
tgt: full-length SARM1 (FL-SARM1) (Homo sapiens)
assigned.category: met
--
molecule: O=C(Nc1cccc(-c2ccccn2)c1)[C@@H]1CC1(F)F
tgt: full-length SARM1 (FL-SARM1) (Homo sapiens)
assigned.category: not met
--
molecule: Cc1ccc(NC(=O)[C@H]2C[C@@H](OC(F)(F)F)C2)cc1-c1ccccn1
tgt: full-length SARM1 (FL-SARM1) (Homo sapiens)
assigned.category: not met

Query string: Decide: IC50 of "Cc1cc(C(F)(F)F)c(NC(=O)N2[C@@H]3C[C@@H](C)C[C@H]2C3)cc1-c1cccnn1" strictly below 1 µM?
Result string: not met

Query string: Decide: IC50 of "Cc1ccc(NC(=O)[C@@H]2C[C@@H]3[C@H](C2)C3(F)F)cc1-c1cccnn1" strictly below 1 µM?
Result string: not met

Query string: Decide: IC50 of "O=C(Nc1ccc(C(F)(F)F)c(-c2ncc(F)cn2)c1)N1C2CCCCC1C2" strictly below 1 µM?
Result string: met

Query string: Decide: IC50 of "CCc1ccc(-c2cc(NC(=O)[C@@H]3CC3(F)F)ccc2C)nc1" strictly below 1 µM?
Result string: not met

Query string: Decide: IC50 of Cc1ccc(NC(=O)N2C3CC2c2ncnn2C3)cc1-c1ccccn1 (stereo not drawn) strictly below 1 µM?
Result string: not met
